# System: Escherichia coli TOP10
# Method summary: shrunken log2 fold change of peptide-encoding DNA abundance (4.5 h post-induction vs induction); higher = less antimicrobial activity (less host growth inhibition)
# Condition summary: time post-induction: 4.5 h; library: site-saturation at positions 5, 18, 19, 20
Recorded endpoint: shrunken log2 fold change
Simply state the number, no unit and no words.

Exercise: Please give the measured shrunken log2 fold change for this sequence: RRIRGRPPRLPRPRPRPDCCPRP
Key: 1.34

Exercise: Sample RRIRGRPPRLPRPRPRPWYVPRP — what was its shrunken log2 fold change?
Key: -2.24

Exercise: Entry RRIRWRPPRLPRPRPRPHLSPRP has what shrunken log2 fold change?
Key: -0.154

Exercise: Which value of shrunken log2 fold change has been reported for RRIRFRPPRLPRPRPRPVPQPRP in the records?
Key: 0.261

Exercise: Can you look up the measured shrunken log2 fold change of RRIRGRPPRLPRPRPRPNVAPRP for me?
Key: 1.15

Exercise: // query shrunken log2 fold change value for entry RRIRVRPPRLPRPRPRPHSRPRP
Key: 0.0978

Exercise: Would you mind telling me what shrunken log2 fold change value was observed for RRIRNRPPRLPRPRPRPAQLPRP ?
Key: -0.207

Exercise: Recorded shrunken log2 fold change of RRIRVRPPRLPRPRPRPDRVPRP , please.
Key: -0.285

Exercise: What does the record list as shrunken log2 fold change for RRIRSRPPRLPRPRPRPHACPRP ?
Key: -0.0756

Exercise: # input sequence: RRIRCRPPRLPRPRPRPEFGPRP ; wanted: its shrunken log2 fold change
Key: 0.241

Exercise: Quick one: shrunken log2 fold change for RRIRPRPPRLPRPRPRPLCSPRP ?
Key: -0.431

Exercise: Fill in the blank: the reported shrunken log2 fold change of RRIRVRPPRLPRPRPRPSTTPRP is ____.
Key: -0.0817

Exercise: Query (sequence): RRIRHRPPRLPRPRPRPGAKPRP ; field requested: shrunken log2 fold change
Key: 0.219

Exercise: // lookup shrunken log2 fold change for RRIRCRPPRLPRPRPRPRPSPRP
Key: 0.695

Exercise: I'd like to know its shrunken log2 fold change. The sequence in question is RRIRIRPPRLPRPRPRPYTMPRP
Key: -0.758

Exercise: # get_value(readout='shrunken log2 fold change', item= RRIRNRPPRLPRPRPRPTSIPRP )
Key: -0.531

Exercise: Which shrunken log2 fold change value is on record for RRIRNRPPRLPRPRPRPKTPPRP ?
Key: 0.228

Exercise: Entry RRIRQRPPRLPRPRPRPNLHPRP has what shrunken log2 fold change?
Key: -0.255

Exercise: // shrunken log2 fold change lookup, key: RRIRLRPPRLPRPRPRPTREPRP
Key: 0.794

Exercise: Returns the measured shrunken log2 fold change for the input sequence. Input: RRIRTRPPRLPRPRPRPDAMPRP
Key: 0.248

Exercise: Fill in the blank: the reported shrunken log2 fold change of RRIRPRPPRLPRPRPRPGCAPRP is ____.
Key: 1.55

Exercise: I would be grateful if you could share the reported shrunken log2 fold change for RRIRSRPPRLPRPRPRPTIVPRP .
Key: 0.148

Exercise: Request the reported shrunken log2 fold change associated with RRIRDRPPRLPRPRPRPTPSPRP
Key: 0.368

Exercise: Report shrunken log2 fold change for RRIRERPPRLPRPRPRPNPEPRP please.
Key: -0.0358

Exercise: I'd like to know its shrunken log2 fold change. The sequence in question is RRIRERPPRLPRPRPRPSEQPRP
Key: -0.0297

Exercise: Look up shrunken log2 fold change: RRIRQRPPRLPRPRPRPWYDPRP
Key: -0.138

Exercise: shrunken log2 fold change for RRIRGRPPRLPRPRPRPPCKPRP ?
Key: 0.339

Exercise: shrunken log2 fold change for RRIRARPPRLPRPRPRPNMKPRP ?
Key: -0.348

Exercise: Form field: reported shrunken log2 fold change of RRIRERPPRLPRPRPRPADVPRP
Key: 0.00489

Exercise: Form field: reported shrunken log2 fold change of RRIRCRPPRLPRPRPRPSCLPRP
Key: -0.499

Exercise: Name the reported shrunken log2 fold change value associated with the sequence RRIRMRPPRLPRPRPRPYHWPRP
Key: -0.101

Exercise: What shrunken log2 fold change value was documented for this sequence, RRIRHRPPRLPRPRPRPVTAPRP ?
Key: 0.0123

Exercise: Field request: shrunken log2 fold change | item: RRIRKRPPRLPRPRPRPPKHPRP
Key: 0.723

Exercise: # query: shrunken log2 fold change of entry RRIRIRPPRLPRPRPRPSMRPRP
Key: -0.000106

Exercise: Which shrunken log2 fold change is reported for this sequence? RRIRCRPPRLPRPRPRPIYRPRP
Key: -0.318

Exercise: Find the recorded shrunken log2 fold change belonging to RRIRMRPPRLPRPRPRPWGAPRP and report it.
Key: 0.698

Exercise: For the sequence RRIRFRPPRLPRPRPRPTPIPRP , what shrunken log2 fold change is on record?
Key: 0.485

Exercise: Query: shrunken log2 fold change; subject: RRIRDRPPRLPRPRPRPDPMPRP
Key: 0.0611

Exercise: Find the recorded shrunken log2 fold change belonging to RRIRTRPPRLPRPRPRPKRQPRP and report it.
Key: 0.562

Exercise: May I ask what shrunken log2 fold change has been recorded for RRIRWRPPRLPRPRPRPAQDPRP ?
Key: 0.415

Exercise: I have this sequence here, RRIRYRPPRLPRPRPRPMGAPRP , and I need its recorded shrunken log2 fold change.
Key: -0.207

Exercise: Any idea what shrunken log2 fold change was measured for RRIRWRPPRLPRPRPRPRISPRP ?
Key: 0.305

Exercise: What value of shrunken log2 fold change has been recorded for this entry: RRIRTRPPRLPRPRPRPSKNPRP
Key: -0.325

Exercise: # lookup: shrunken log2 fold change of RRIRYRPPRLPRPRPRPYWEPRP
Key: -0.0328

Exercise: Bench note: what shrunken log2 fold change did RRIRDRPPRLPRPRPRPKSIPRP show?
Key: 0.114

Exercise: Consider the sequence RRIRIRPPRLPRPRPRPMKCPRP and give its measured shrunken log2 fold change.
Key: -0.0692

Exercise: Give the measured shrunken log2 fold change of RRIRQRPPRLPRPRPRPTPVPRP .
Key: 0.286

Exercise: Reported shrunken log2 fold change for RRIRCRPPRLPRPRPRPQDSPRP : what is it?
Key: -0.0482

Exercise: Field request: shrunken log2 fold change | item: RRIRVRPPRLPRPRPRPDSWPRP
Key: -0.0688

Exercise: Reported shrunken log2 fold change, sequence RRIRFRPPRLPRPRPRPECQPRP : ____
Key: -0.0729

Exercise: Using the record for RRIRHRPPRLPRPRPRPMVCPRP , report its shrunken log2 fold change.
Key: -0.0703

Exercise: Would you kindly share the measured shrunken log2 fold change for RRIRIRPPRLPRPRPRPWLCPRP ?
Key: -0.121

Exercise: Sample RRIRNRPPRLPRPRPRPNQDPRP — what was its shrunken log2 fold change?
Key: -0.251

Exercise: Could you tell me which shrunken log2 fold change is on file for RRIRFRPPRLPRPRPRPDYCPRP ?
Key: -0.127

Exercise: Given the sequence RRIRSRPPRLPRPRPRPPYYPRP , what is its reported shrunken log2 fold change?
Key: -0.174

Exercise: Can you share its shrunken log2 fold change? I mean this sequence: RRIRYRPPRLPRPRPRPYYFPRP
Key: -2.19

Exercise: // query shrunken log2 fold change value for entry RRIRIRPPRLPRPRPRPWRNPRP
Key: -0.0466

Exercise: Form field: reported shrunken log2 fold change of RRIRIRPPRLPRPRPRPHGQPRP
Key: -0.0468

Exercise: Entry RRIRLRPPRLPRPRPRPSHSPRP has what shrunken log2 fold change?
Key: -0.775

Exercise: Which value of shrunken log2 fold change has been reported for RRIRIRPPRLPRPRPRPFVGPRP in the records?
Key: -0.134

Exercise: Data request, read-out shrunken log2 fold change, for RRIRFRPPRLPRPRPRPIMSPRP
Key: -0.0555

Exercise: Bench note: what shrunken log2 fold change did RRIRSRPPRLPRPRPRPITLPRP show?
Key: -0.333

Exercise: Reported shrunken log2 fold change for RRIRNRPPRLPRPRPRPNQTPRP : what is it?
Key: -0.0303

----------
# Tested on: Escherichia coli TOP10;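 note: peptides expressed intracellularly from a pBAD plasmid library in pooled LB shake-flask culture, induced with 0.3% L-arabinose, DNA abundance read by NGS, three biological replicates, DESeq2 with apeglm shrinkage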
# Method summary: shrunken log2 fold change of peptide-encoding DNA abundance (4.5 h post-induction vs induction); higher = less antimicrobial activity (less host growth inhibition)
# Condition summary: time post-induction: 4.5 h; library: site-saturation at positions 5, 18, 19, 20
Quick rule: shrunken log2 fold change of at least -0.07 means yes, below that means no.

Exercise: Please tell me: is the sequence RRIRCRPPRLPRPRPRPGFWPRP at or over -0.07 in terms of shrunken log2 fold change?
Key: yes

Exercise: Confirm if shrunken log2 fold change reported for the sequence RRIRNRPPRLPRPRPRPGTVPRP is -0.07 or above.
Key: no

Exercise: Quick check, shrunken log2 fold change >= -0.07? RRIRDRPPRLPRPRPRPSDYPRP
Key: no

Exercise: Hi, just wondering whether RRIRPRPPRLPRPRPRPPFEPRP shows shrunken log2 fold change of -0.07 or higher.
Key: yes

Exercise: Is shrunken log2 fold change for RRIRHRPPRLPRPRPRPIWVPRP at or above -0.07?
Key: yes

Exercise: Please tell me: is the sequence RRIRLRPPRLPRPRPRPTHWPRP at or over -0.07 in terms of shrunken log2 fold change?
Key: yes

Exercise: Form field: shrunken log2 fold change at least -0.07? Entry: RRIRLRPPRLPRPRPRPGCWPRP
Key: yes

Exercise: Please indicate if the recorded shrunken log2 fold change for RRIRDRPPRLPRPRPRPFRAPRP meets or exceeds -0.07.
Key: no

Exercise: Textbook exercise: given the entry RRIRVRPPRLPRPRPRPQLWPRP , state whether its shrunken log2 fold change is greater than or equal to -0.07.
Key: yes

Exercise: Given the entry RRIRVRPPRLPRPRPRPTQMPRP , answer whether its shrunken log2 fold change meets or surpasses -0.07.
Key: yes

Exercise: Decide: is the reported value of shrunken log2 fold change for RRIRRRPPRLPRPRPRPSITPRP equal to or greater than -0.07?
Key: no

Exercise: // inclusive: shrunken log2 fold change at least -0.07? input: RRIRTRPPRLPRPRPRPMKQPRP
Key: yes

Exercise: Hello, I need to know if RRIRLRPPRLPRPRPRPMGNPRP has measured shrunken log2 fold change not below -0.07. Thanks!
Key: no

Exercise: Check if shrunken log2 fold change >= -0.07 (inclusive). Item: RRIRARPPRLPRPRPRPLGRPRP
Key: yes
